test system: HCT-116; experiment: NCI tumour cell line growth inhibition, 48 h
Activity calls are given as the source filed them. Cut-off read from the data, not from the text of the source: active = GI50 up to about 1.1 µM and inactive = higher.
quantityMeasured: GI50

>>> recordedvalue("N#Cc1c(N)nc(Sc2ccccc2N)c(C#N)c1-c1ccccc1")
"15.7 µM (inactive)"
>>> recordedvalue("CC(=O)NNc1nc(C)c(C(=O)NNC(=O)C(=O)Nc2ccc(Cl)cc2)s1")
"> 100 µM (inactive)"
>>> recordedvalue("C=C1C[C@]23C[C@@]1(O)CC[C@H]2[C@@]12C=C[C@H](O)[C@@](C)(C(=O)O1)[C@H]2[C@@H]3C(=O)O")
"> 100 µM (inactive)"
>>> recordedvalue("C[C@]12CCC3c4ccc(OC(=O)c5ccccc5)cc4CC[C@H]3C1CC[C@@H]2OC(=O)C12OC1CCC2=O (stereo partly specified)")
"3.03 µM (inactive)"
>>> recordedvalue("CC1CC(c2ccc([N+](=O)[O-])cc2)=Nc2ccccc2S1 (stereo unspecified)")
"1.75 µM (inactive)"
>>> recordedvalue("CCCCn1c(C)c(C(=O)CC)c(C(=O)NCCN2CCN(c3ccccc3Cl)CC2)c1C")
"14.3 µM (inactive)"
>>> recordedvalue("c1cc2c(cnc3cscc32)s1")
"> 100 µM (inactive)"
>>> recordedvalue("CCCCCCCCCCCc1noc2c1C(=O)C(O)CC2 (stereo unspecified)")
"17.6 µM (inactive)"
>>> recordedvalue("O=C(/C=C/c1ccccc1O)c1cccs1")
"> 100 µM (inactive)"
>>> recordedvalue("CO/C(=N\\N=C(/c1ccccc1)C(F)(F)F)c1ccncc1")
"28.3 µM (inactive)"
>>> recordedvalue("CO/C=C(/C(=O)OC)c1ccccc1[C@H]1C[C@@H]1c1ccc(OC)cc1")
"16.3 µM (inactive)"
>>> recordedvalue("CC(C)(C)OC(=O)NCC(=O)N(CCc1ccc(Cl)c(Cl)c1)CCN1CCCC1")
"13.7 µM (inactive)"
>>> recordedvalue("CSc1nc(-c2ccc(C)cc2)c(C#N)c(=O)[nH]1")
"> 100 µM (inactive)"
>>> recordedvalue("CCCCC#COS(=O)(=O)c1ccc(C)cc1")
"82.8 µM (inactive)"
>>> recordedvalue("CSC(=S)OC1C(CO[Si](C)(C)C(C)(C)C)OC2OC(C)(C)OC21 (stereo unspecified)")
"18.5 µM (inactive)"
>>> recordedvalue("O=c1c2c(F)c(F)c(F)c(F)c2sc2nccn12")
"13.9 µM (inactive)"
>>> recordedvalue("CC(C)(C)C1CCC2(CC1)c1[nH]c3ccccc3c1C1(CCC(C(C)(C)C)CC1)c1[nH]c3ccccc3c12 (stereo unspecified)")
"41.6 µM (inactive)"
>>> recordedvalue("CCOC1=NC(C(F)(F)F)(C(F)(F)F)N=C(N2CCOCC2)O1")
"> 100 µM (inactive)"
>>> recordedvalue("C=CCOC1=C(OC(C)=O)C(C2COC(C)(C)O2)OC1=O (stereo unspecified)")
"17.6 µM (inactive)"
>>> recordedvalue("Cc1cccc(NC(=O)/C=C/c2ccc(N(CCC#N)CCC#N)cc2C)c1")
"> 100 µM (inactive)"
>>> recordedvalue("C=C1C(=O)OCC2C(C(=O)O)=CC3C(C)C(C)=CC123 (stereo unspecified)")
"9.48 µM (inactive)"

----------
system: NCI-H226; assay: NCI tumour cell line growth inhibition, 48 h
Activity calls are given as the source filed them. Cut-off read from the data, not from the text of the source: active = GI50 up to about 1.1 µM and inactive = higher.
Labels: yes for active, no for inactive

>>> classlabel("OC1CN2CCS[C@H]2C(O)C1O (stereo not given in full)")
"no"
>>> classlabel("COC12CC(O)=C(C(C)=O)C(=O)C1(C)c1c(OC(C)=O)c(C)c(O)c(C(C)=O)c1O2 (stereo not given)")
"no"
>>> classlabel("O=c1c2c(F)c(F)c(F)c(F)c2sc2nccn12")
"no"
>>> classlabel("O=C(/C=C/c1ccccc1O)c1cccs1")
"no"
>>> classlabel("S=c1nc2c(c[nH]1)C1c3ccccc3C2c2ccccc21")
"no"
>>> classlabel("Cc1occc1/C(S)=N\\c1ccc(Cl)c(COC(C)(C)C)c1")
"no"
>>> classlabel("COc1ccc([C@]23CCN(S(=O)(=O)c4ccc(C)cc4)[C@H]2[C@H](CO)C2(CC3)OCC(C)(C)CO2)cc1OC")
"no"
>>> classlabel("COc1cc2c(c3c1c(=O)c1ccccc1n3C)C=CC1(CCCC1)O2")
"no"
>>> classlabel("O=C(/C=C/c1ccc(O)cc1)OC[C@@H](O)COC1OC(CO)C(O)C(O)C1O (stereo not given in full)")
"no"
>>> classlabel("CC1(C)[C@@H](Cn2nnc3c(N)ncnc32)CC[C@@]1(C)CO")
"no"
>>> classlabel("CC(C)C.C[N+](C)(C)C.OC(c1ccccc1)(C(F)(F)F)C(F)(F)F.OC(c1ccccc1)(C(F)(F)F)C(F)(F)F.[SiH3-]")
"yes"
>>> classlabel("Cc1ccc(NC(=O)CC/C(CC(=O)C(C)(C)C)=N/NC(=O)c2cc3ccccc3cc2O)cc1C")
"no"
>>> classlabel("O=c1c2cc(-c3ccccc3)sc2nc2n1N=C(c1ccccc1)CS2")
"no"
>>> classlabel("COc1ccc(C2NC(N)=C(C#N)C3=C2C(C)CCC3)cc1OC (stereo not given)")
"no"
>>> classlabel("O=C1c2ccccc2-c2nc(-c3ccccc3)cc3c2c1nc1ccccc13")
"no"
>>> classlabel("O=C1C=CC(O)(C#CCO)C=C1")
"no"
>>> classlabel("COC(=O)[C@@H](NC1(c2ccccc2)c2ccccc2-c2ccccc21)[C@H](OC(=O)[C@H]1CCCN1S(=O)(=O)c1ccccc1)C(=O)OC")
"no"
>>> classlabel("C=C1[C@@](C)([C@@H]2CCCS2)[C@H]2C(C)=C[C@]1(C)n1c(=O)n(-c3ccccc3)c(=O)n12")
"no"
>>> classlabel("O=C(CC(=O)N1N=C(N2CCCCC2)CC1c1ccccc1)Nc1ccc(Cl)cc1 (stereo not given)")
"no"
>>> classlabel("Cc1cn(CCC(N)C(=O)O)c(=O)[nH]c1=O (stereo not given)")
"no"
